Molecular target: CRBN-DDB1 (Homo sapiens (Human))
Sequence (Q96SW2 whole entry): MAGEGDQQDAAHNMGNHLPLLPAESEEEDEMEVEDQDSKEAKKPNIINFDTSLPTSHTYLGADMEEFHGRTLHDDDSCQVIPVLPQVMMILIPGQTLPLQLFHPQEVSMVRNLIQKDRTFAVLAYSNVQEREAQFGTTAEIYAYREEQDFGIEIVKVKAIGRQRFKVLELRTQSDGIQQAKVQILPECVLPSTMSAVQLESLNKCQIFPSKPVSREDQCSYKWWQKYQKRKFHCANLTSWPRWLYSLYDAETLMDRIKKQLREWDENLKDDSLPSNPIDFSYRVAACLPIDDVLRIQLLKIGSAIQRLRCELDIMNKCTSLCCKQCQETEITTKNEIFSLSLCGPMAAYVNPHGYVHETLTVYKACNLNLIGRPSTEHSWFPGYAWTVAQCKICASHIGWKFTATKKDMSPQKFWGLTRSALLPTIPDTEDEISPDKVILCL
Sequence (Q16531 whole entry partner): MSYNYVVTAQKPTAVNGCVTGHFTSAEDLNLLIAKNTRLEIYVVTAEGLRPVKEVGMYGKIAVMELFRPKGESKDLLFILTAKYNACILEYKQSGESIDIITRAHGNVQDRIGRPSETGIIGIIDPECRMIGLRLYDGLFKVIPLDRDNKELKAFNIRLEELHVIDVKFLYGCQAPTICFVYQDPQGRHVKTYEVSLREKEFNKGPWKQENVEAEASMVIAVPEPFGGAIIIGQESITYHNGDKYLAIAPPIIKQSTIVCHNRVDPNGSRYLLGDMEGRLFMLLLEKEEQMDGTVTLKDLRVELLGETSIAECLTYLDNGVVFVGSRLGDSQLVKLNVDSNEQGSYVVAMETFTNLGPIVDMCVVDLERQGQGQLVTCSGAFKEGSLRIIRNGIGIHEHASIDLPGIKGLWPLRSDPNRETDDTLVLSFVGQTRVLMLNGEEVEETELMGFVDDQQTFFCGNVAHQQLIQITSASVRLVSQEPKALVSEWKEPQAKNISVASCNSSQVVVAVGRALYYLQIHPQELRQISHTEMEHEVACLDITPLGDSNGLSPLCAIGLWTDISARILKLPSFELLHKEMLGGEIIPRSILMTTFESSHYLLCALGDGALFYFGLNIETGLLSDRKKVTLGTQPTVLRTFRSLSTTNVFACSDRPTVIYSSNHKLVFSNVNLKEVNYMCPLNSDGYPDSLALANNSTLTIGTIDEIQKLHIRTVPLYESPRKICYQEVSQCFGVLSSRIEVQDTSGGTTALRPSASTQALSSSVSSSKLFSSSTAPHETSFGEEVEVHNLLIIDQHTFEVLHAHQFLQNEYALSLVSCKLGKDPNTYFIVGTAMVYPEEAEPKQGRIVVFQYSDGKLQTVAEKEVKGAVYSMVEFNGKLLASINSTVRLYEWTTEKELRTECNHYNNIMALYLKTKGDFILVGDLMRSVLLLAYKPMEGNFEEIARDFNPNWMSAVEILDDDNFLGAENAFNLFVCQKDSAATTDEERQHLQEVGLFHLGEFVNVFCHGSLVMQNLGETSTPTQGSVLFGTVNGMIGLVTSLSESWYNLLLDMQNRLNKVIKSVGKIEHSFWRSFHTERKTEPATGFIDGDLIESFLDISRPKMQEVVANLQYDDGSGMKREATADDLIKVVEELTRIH
Experiment: Compound binding to CRBN by HTRF assay
Settings: HTRF class; Cereblon binding
Protocol: Compound activity was monitored in a Homogenous Time-Resolved Fluorescence (HTRF) assay using 1-[5-({2-[2-(2-{[2-(2,6-dioxopiperidin-3-yl)-1,3-dioxo-2,3-dihydro-1H-isoindol-4-yl]oxy}acetamido)ethoxy]ethyl}carbamoyl)pentyl]-3,3-dimethyl-2-[(1E,3E)-5-[(2E)-1,3,3-trimethyl-5-sulfo-2,3-dihydro-1H-indol-2-ylidene]penta-1,3-dien-1-yl]-3H-indol-1-ium-5-sulfonate as a fluorescent probe. Biochemical assays were conducted in Greiner white 384 well HiBase plates (Cat. No 784075-25) in 20 μL total volume. […]
pEC50: −log10 of the molar value.
Measured pEC50 of individual entries

Record for CC(C)(C(=O)NCc1cc(F)c(C2CCC(=O)NC2=O)c(Cl)c1)c1ccc(OCC(F)F)nc1 (stereo not shown) under target or system CRBN-DDB1 (Homo sapiens (Human)): pEC50 reported as 6.00 to 7.00

// pEC50 (CRBN-DDB1 (Homo sapiens (Human))) for Cn1ccc(C(C)(C)C(=O)NCc2cc(Cl)c(C3CCC(=O)NC3=O)c(Cl)c2)cc1=O (stereo not shown) = 6.00 to 7.00

Short answer on CRBN-DDB1 (Homo sapiens (Human)) for CC(C)(C(=O)NCc1cc(Cl)c(C2CCC(=O)NC2=O)c(Cl)c1)c1ccc2[nH]c(=O)oc2c1 (stereo not shown) , pEC50: ≥ 7.00

Record CC(C)(C(=O)NCc1cc(Cl)c(C2CCC(=O)NC2=O)c(Cl)c1)c1ccnc(C#N)c1 (stereo not shown) / CRBN-DDB1 (Homo sapiens (Human)), pEC50 recorded as 6.00 to 7.00

Query CC(C)(C(=O)NCc1cc(Cl)c(C2CCC(=O)NC2=O)c(Cl)c1)c1ccc(S(N)(=O)=O)c(F)c1 (stereo not shown) on CRBN-DDB1 (Homo sapiens (Human)); pEC50 returned: ≥ 7.00

Form: item CC(C)(C(=O)NCc1cc(Cl)c(C2CCC(=O)NC2=O)c(Cl)c1)N1Cc2ccccc2C1 (stereo not shown) ; test system CRBN-DDB1 (Homo sapiens (Human)); pEC50: 6.00 to 7.00

Field pEC50 (CRBN-DDB1 (Homo sapiens (Human))), entry CC(C)(C(=O)NCc1cc(Cl)c(C2CCC(=O)NC2=O)c(Cl)c1)c1ccc(C#N)cn1 (stereo not shown) : 6.00 to 7.00
